test system: Mycobacterium tuberculosis; assay: Antimycobacterial activity against BTZ043-resistant Mycobacterium tuberculosis harboring DprE1 C-G mutant assessed as growth inhibition by resazurin assay; assay type: functional
Hi! Just check whether MIC is below 0.6 µM. Below gives Y, equal or above gives N.

Worked cases, answers included:
O=c1[nH]c2c(cc1CNCc1cccc(C(F)(F)F)n1)c(C1CC1)nn2-c1ccccc1; N
O=c1[nH]c2c(cc1CNCc1cccc(C(F)(F)F)c1F)c(C1CC1)nn2-c1ccccc1; N
Cc1nn(-c2ccccc2)c2[nH]c(=O)c(CNCc3cccc(C(F)(F)F)c3)cc12; Y
NNC(=O)c1ccncc1 [ISONIAZID]; Y
O=c1[nH]c2c(cc1CNCc1cc(C(F)(F)F)ccc1F)c(C1CC1)nn2-c1ccccc1; N
O=c1[nH]c2c(cc1CNCc1cccc(C(F)(F)F)c1)c(C1CC1)nn2-c1ccccc1; N

Let us examine a further case.
A record lists Cc1ccc(C(F)(F)F)cc1CNCc1cc2c(C3CC3)nn(-c3ccccc3)c2[nH]c1=O . Is its MIC below 0.6 µM? N

* * *

tested on: Mycobacterium tuberculosis; assay: Antimycobacterial activity against 3-cyclopropyl-1-phenyl-5-((3-(trifluoromethyl)benzylamino)-methyl)-1H-pyrazolo[3,4-b]pyridin-6(7H)-one-resistant Mycobacterium tuberculosis clone 8.1 assessed as growth inhibition by resazurin assay; format: functional; settings: clone 8.1, 7 h
QUANTITY: MIC

The cases that follow already have their MIC on record.
Cc1nn(-c2ccccc2)c2[nH]c(=O)c(CNCc3cccc(C(F)(F)F)c3)cc12; > 100 µM
O=c1[nH]c2c(cc1CNCc1cccc(C(F)(F)F)c1)c(C1CC1)nn2-c1ccccc1; 50 µM
C[C@H]1COC2(CCN(c3nc(=O)c4cc(C(F)(F)F)cc([N+](=O)[O-])c4s3)CC2)O1; > 100 µM
NNC(=O)c1ccncc1; 100 µM
O=c1[nH]c2c(cc1CNCc1cccc(C(F)(F)F)c1F)c(C1CC1)nn2-c1ccccc1; 0.6 µM

What measured MIC goes with O=c1[nH]c2c(cc1CNCc1cccc(C(F)(F)F)n1)c(C1CC1)nn2-c1ccccc1 ? 1.2 µM

What measured MIC goes with O=c1[nH]c2c(cc1CNCc1cc(C(F)(F)F)ccc1F)c(C1CC1)nn2-c1ccccc1 ? 100 µM

What measured MIC goes with Cc1ccc(C(F)(F)F)cc1CNCc1cc2c(C3CC3)nn(-c3ccccc3)c2[nH]c1=O ? 0.3 µM

* * *

test system: Mycobacterium tuberculosis; assay: Antimycobacterial activity against isoniazid-resistant Mycobacterium tuberculosis 912253 assessed as growth inhibition after 2 to 3 weeks by turbidometry; assay type: functional
Hi! Just check whether MIC is below 3 µM. Below gives label 1, equal or above gives label 0.

Worked cases, answers included:
CC1COc2c(N3CCN(C)CC3)c(F)cc3c(=O)c(C(=O)O)cn1c23 (configuration not stated) [OFLOXACIN]; label 1
CN[C@@H]1[C@H](O[C@H]2[C@H](O[C@H]3[C@H](O)[C@@H](O)[C@H](N=C(N)N)[C@@H](O)[C@@H]3N=C(N)N)O[C@@H](C)[C@]2(O)C=O)O[C@@H](CO)[C@H](O)[C@H]1O [STREPTOMYCIN]; label 1
O=c1[nH]c2c(cc1CNCc1cccc(C(F)(F)F)c1)c(C1CC1)nn2-c1ccccc1; label 0

A record lists Cc1nn(-c2ccccc2)c2[nH]c(=O)c(CNCc3cccc(C(F)(F)F)c3)cc12 . Is its MIC below 3 µM? label 0

A record lists CO[C@H]1/C=C/O[C@@]2(C)Oc3c(C)c(O)c4c(O)c(c(/C=N/N5CCN(C)CC5)c(O)c4c3C2=O)NC(=O)/C(C)=C\C=C\[C@H](C)[C@H](O)[C@@H](C)[C@@H](O)[C@@H](C)[C@H](OC(C)=O)[C@@H]1C [RIFAMPIN] . Is its MIC below 3 µM? label 1

A record lists NNC(=O)c1ccncc1 [ISONIAZID] . Is its MIC below 3 µM? label 0

A record lists CC[C@@H](CO)NCCN[C@@H](CC)CO [ETHAMBUTOL] . Is its MIC below 3 µM? label 1

* * *

Items are presented alongside their recorded MIC.
system: Mycobacterium tuberculosis; assay: Antimycobacterial activity against BTZ043-resistant Mycobacterium tuberculosis harboring DprE1 C-S mutant assessed as growth inhibition by resazurin assay; type: functional

The cases that follow already have their MIC on record.
O=c1[nH]c2c(cc1CNCc1cccc(C(F)(F)F)c1)c(C1CC1)nn2-c1ccccc1; >100 µM
Cc1ccc(C(F)(F)F)cc1CNCc1cc2c(C3CC3)nn(-c3ccccc3)c2[nH]c1=O; 0.3 µM
O=c1[nH]c2c(cc1CNCc1cccc(C(F)(F)F)n1)c(C1CC1)nn2-c1ccccc1; 100 µM
O=c1[nH]c2c(cc1CNCc1cc(C(F)(F)F)ccc1F)c(C1CC1)nn2-c1ccccc1; 1.2 µM
O=c1[nH]c2c(cc1CNCc1cccc(C(F)(F)F)c1F)c(C1CC1)nn2-c1ccccc1; >100 µM
NNC(=O)c1ccncc1; 0.1 µM
Cc1nn(-c2ccccc2)c2[nH]c(=O)c(CNCc3cccc(C(F)(F)F)c3)cc12; 100 µM

In the following, a different compound is considered.
What measured MIC goes with C[C@H]1COC2(CCN(c3nc(=O)c4cc(C(F)(F)F)cc([N+](=O)[O-])c4s3)CC2)O1 ? 0.3 µM

* * *

Items are presented alongside their recorded MIC.
test system: Mycobacterium tuberculosis; assay: Antimycobacterial activity against ofloxacin-resistant Mycobacterium tuberculosis 12119 assessed as growth inhibition after 2 to 3 weeks by turbidometry; assay type: functional
Entry rule: numbers only, all in µM.

O=c1[nH]c2c(cc1CNCc1cccc(C(F)(F)F)c1)c(C1CC1)nn2-c1ccccc1; 1.6

What MIC appears in the records for this compound with Mycobacterium tuberculosis? CO[C@H]1/C=C/O[C@@]2(C)Oc3c(C)c(O)c4c(O)c(c(/C=N/N5CCN(C)CC5)c(O)c4c3C2=O)NC(=O)/C(C)=C\C=C\[C@H](C)[C@H](O)[C@@H](C)[C@@H](O)[C@@H](C)[C@H](OC(C)=O)[C@@H]1C [RIFAMPIN] 0.02

* * *

Items are presented alongside their recorded MIC.
system: Mycobacterium tuberculosis; experiment: Antimycobacterial activity against ofloxacin-resistant Mycobacterium tuberculosis 12119 assessed as growth inhibition after 2 to 3 weeks by turbidometry; assay type: functional
Entry rule: numbers only, all in µM.

Cc1nn(-c2ccccc2)c2[nH]c(=O)c(CNCc3cccc(C(F)(F)F)c3)cc12; 1.6
CN[C@@H]1[C@H](O[C@H]2[C@H](O[C@H]3[C@H](O)[C@@H](O)[C@H](N=C(N)N)[C@@H](O)[C@@H]3N=C(N)N)O[C@@H](C)[C@]2(O)C=O)O[C@@H](CO)[C@H](O)[C@H]1O; 0.3

What MIC appears in the records for this compound with Mycobacterium tuberculosis? NNC(=O)c1ccncc1 0.2

What MIC appears in the records for this compound with Mycobacterium tuberculosis? CC[C@@H](CO)NCCN[C@@H](CC)CO 2

Attribution: ChEMBL document CHEMBL3259779
